TEST SYSTEM: human CB1 receptors (Homo sapiens)
Construct: expressed in transfected cells; host or cells: CHO cells
Sequence (P21554 whole entry): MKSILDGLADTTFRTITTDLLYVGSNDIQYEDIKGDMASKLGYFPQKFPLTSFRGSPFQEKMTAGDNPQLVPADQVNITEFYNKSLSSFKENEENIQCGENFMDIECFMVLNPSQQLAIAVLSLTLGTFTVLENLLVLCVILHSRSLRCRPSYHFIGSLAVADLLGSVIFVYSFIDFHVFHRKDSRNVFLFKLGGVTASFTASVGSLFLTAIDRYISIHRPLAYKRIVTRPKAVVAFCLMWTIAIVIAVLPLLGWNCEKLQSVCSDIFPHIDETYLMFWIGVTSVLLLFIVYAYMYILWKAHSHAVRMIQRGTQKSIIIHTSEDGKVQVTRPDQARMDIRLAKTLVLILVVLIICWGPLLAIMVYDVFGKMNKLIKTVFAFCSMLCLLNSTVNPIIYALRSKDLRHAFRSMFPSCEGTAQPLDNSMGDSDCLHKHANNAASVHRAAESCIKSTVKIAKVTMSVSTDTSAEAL
METHOD NOTES: functional cAMP assay, human CB1
Type: cell-based
CONDITION SET: CHO cells expressing human CB1, cAMP; read-out: human CB1 EC50
METRIC NAME: EC50 (nM)
Numeric answer only, unit nM assumed.

CC(C)(C)c1nc(N2CC[C@](C)(O)C2)c2nnn(Cc3ccccc3Cl)c2n1 ... 1800
CC(C)(C)c1nc(N2CCC3(COC3)C2)c2nnn(Cc3ccccc3Cl)c2n1 ... 1260
CC(C)(C)c1nc(N2CCC(F)(F)C2)c2nnn(Cc3c(F)ccc(Cl)c3Cl)c2n1 ... 137
CC(C)(C)c1nc(N2CCC(F)(F)C2)c2nnn(Cc3cccc(Cl)c3Cl)c2n1 ... 162

In the following, a different compound is considered.
Req: Item CC(C)(C)c1nc(N2CCC(F)(F)C2)c2nnn(Cc3nccc(Cl)c3Cl)c2n1 has what recorded EC50?
Resp: 276

---

TEST SYSTEM: human CB2 receptors (Homo sapiens)
Construct: expressed in transfected cells; host or cells: CHO cells
Sequence (P34972 whole entry): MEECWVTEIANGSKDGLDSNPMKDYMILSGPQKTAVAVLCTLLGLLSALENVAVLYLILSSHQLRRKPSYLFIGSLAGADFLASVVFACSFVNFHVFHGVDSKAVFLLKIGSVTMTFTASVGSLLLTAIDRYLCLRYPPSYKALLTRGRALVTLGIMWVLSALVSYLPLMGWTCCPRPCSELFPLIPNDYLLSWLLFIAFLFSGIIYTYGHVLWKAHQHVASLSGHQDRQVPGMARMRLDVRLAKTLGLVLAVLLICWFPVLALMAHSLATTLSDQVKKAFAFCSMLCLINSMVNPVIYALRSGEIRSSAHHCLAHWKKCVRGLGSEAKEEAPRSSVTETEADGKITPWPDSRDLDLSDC
METHOD NOTES: functional cAMP assay, human CB2
Assay type: cell-based
CONDITION SET: CHO cells expressing human CB2, cAMP; read-out: human CB2 EC50
Would you mind sorting the entries by EC50 according to these classes? I: < 0.7 nM; II: ≥ 0.7 nM and < 10 nM; III: ≥ 10 nM

Known results for molecules:
CC(C)(C)c1nc(N2CCC(F)(F)C2)c2nnn(CCc3ccccn3)c2n1 ... I
Cc1nonc1Cn1nnc2c(N3CC[C@](C)(O)C3)nc(C(C)(C)C)nc21 ... II
C[C@H](Oc1nc(C(C)(C)C)nc2c1nnn2Cc1ccccc1Cl)C(F)(F)F ... III
CN1CCN(c2nc(C(C)(C)C)nc3c2nnn3Cc2ccccc2Cl)CC1 ... II
Cc1c(Cn2nnc3c(N4CCC(F)(F)C4)nc(C(C)(C)C)nc32)ccc[n+]1[O-] ... I
CC(C)Oc1nc(C(C)(C)C)nc2c1nnn2Cc1ccccc1Cl ... III
CC(C)(C)c1nc(N2CCC(F)(F)C2)c2nnn(C(=O)c3ccccc3Cl)c2n1 ... III
Cc1noc(Cn2nnc3c(N4CC(F)(F)C(F)(F)C4)nc(C(C)(C)C)nc32)n1 ... II
CCn1nnc2c(N3CCC(F)(F)C3)nc(C(C)(C)C)nc21 ... III
Cc1nonc1Cn1nnc2c(N3CC4(COC4)C3)nc(C(C)(C)C)nc21 ... II

Req: State the band of CC(C)(C)c1nc(N2CC3(COC3)C2)c2nnn(Cc3ncccc3Cl)c2n1
Resp: II

Req: State the band of Cn1nncc1Cn1nnc2c(N3CCC(F)(F)C3)nc(C(C)(C)C)nc21
Resp: I

Req: State the band of CC(C)(C)c1nc(N2CCC(F)(F)C2)c2nnn(Cc3cc(Cl)cnc3Cl)c2n1
Resp: I

Req: State the band of Cc1noc(Cn2nnc3c(N4CC[C@H](O)C4)nc(C(C)(C)C)nc32)n1
Resp: III

Req: State the band of CC(C)(C)c1nc(N2CC[C@H](O)C2)c2nnn(Cc3ccccc3C(F)(F)F)c2n1
Resp: I

Req: State the band of CC(C)(C)c1nc(NC2CCCCC2)c2nnn(Cc3ccccc3Cl)c2n1
Resp: III
